experimental-protocol: ACEA_AR_antagonist_AUC_viability: ACEA Biosciences xCELLigence Real-Time Cell Analysis on Androgen Receptor Antagonism for Viability (AID 2283776);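 also: 22Rv1 human prostate cancer cells growing on impedance electrode plates; area under impedance growth curve at 80 h after dosing as viability; hits lower the growth signal relative to DMSO meaning cytotoxicity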
Results filed as inconclusive are left out. Activity calls are given as the source filed them. The calls were made as follows: active = hit-call score of the fitted dose curve at least 0.9, where 1 is the maximum; inconclusive = response in the unintended direction; inactive = score below 0.9.
recorded-endpoint: outcome

get_value(item= `O=C(O)C(Cl)Cl` , readout=outcome) returns inactive

get_value(item= `ClC(Cl)c1ccccc1` , readout=outcome) returns inactive

get_value(item= O=S1(=O)OCC2C(CO1)C1(Cl)C(Cl)=C(Cl)C2(Cl)C1(Cl)Cl (stereo not drawn) , readout=outcome) returns inactive

* * *

Read-out: Plasminogen activator inhibitor-1 (PAI1), SERPINE1 (gene 5054)
experimental-protocol: BSK_hDFCGF_PAI1: BioMAP Diversity Plus: hDFCGF Assay for Plasminogen activator inhibitor-1 (PAI1) Biomarker Activity (AID 2283066)
condition-details: primary human foreskin fibroblasts; actives raise or lower the signal
Calls of active or inactive are those of the source. The calls were made as follows: active = hit-call score of the fitted dose curve at least 0.9, where 1 is the maximum; inactive = score below 0.9.
Bench note: report the call from yes (1) for active, no (0) for inactive

Query block: What call does the record list for `c1cc2c3c(cccc3c1)CC2` ?
Result block: no (0)

Query block: What call does the record list for `CCCCc1ccccc1` ?
Result block: no (0)

Query block: What call does the record list for `CSC(C)(C)C=NO` ?
Result block: no (0)

Query block: What call does the record list for `c1ccc2c(c1)Nc1ccccc1S2` ?
Result block: yes (1)

Query block: What call does the record list for `CCOc1ccc(C(C)(C)COCc2cccc(Oc3ccccc3)c2)cc1` ?
Result block: no (0)

Others:
Query block: What call does the record list for `CCN(CC)c1ccccc1` ?
Result block: no (0)

Query block: What call does the record list for `CCOP(=S)(OCC)SCS(=O)(=O)CC` ?
Result block: no (0)

Query block: What call does the record list for `ClC(Cl)=C(c1ccc(Cl)cc1)c1ccccc1Cl` ?
Result block: yes (1)

Query block: What call does the record list for `ClC(Cl)(Cl)c1ccccc1` ?
Result block: no (0)

Query block: What call does the record list for FC(F)(F)C(F)(C(F)(F)F)C(F)(F)C(F)(F)CC1CO1 (stereo not drawn) ?
Result block: no (0)

Query block: What call does the record list for `COP(=O)(O)OC` ?
Result block: no (0)

Query block: What call does the record list for CCOP(=S)(Oc1ccc([N+](=O)[O-])cc1)c1ccccc1 (stereo not drawn) ?
Result block: yes (1)

Query block: What call does the record list for `OCC(F)(F)OC(F)(F)C(F)(F)OC(F)(F)C(F)(F)OC(F)(F)CO` ?
Result block: no (0)

* * *

target: Estrogen receptor (Homo sapiens)
experimental-protocol: OT_ERa_GFPERaERE_0120: Odyssey Thera (OT) 2-hour HeLa Transcription Induction Assay for Estrogen Receptor (AID 2283382)
Active and inactive are the calls of the source. Rule for the calls: active = hit-call score of the fitted dose curve at least 0.9, where 1 is the maximum; inconclusive = response in the unintended direction; inactive = score below 0.9.
Bench note: report the call from Yes for active, No for inactive

Query block: What call does the record list for O=P1(N(CCCl)CCCl)NCCCO1 (centres undefined) ?
Result block: No

Query block: What call does the record list for `CSC(C)(C)C=NO` ?
Result block: No

Query block: What call does the record list for `ClC(Cl)(Cl)c1ccccc1` ?
Result block: No

Query block: What call does the record list for `c1cc2c3c(cccc3c1)CC2` ?
Result block: No

Query block: What call does the record list for `O=P(Oc1ccccc1)(Oc1ccccc1)Oc1ccccc1` ?
Result block: Yes

Query block: What call does the record list for `O=C(O)CF` ?
Result block: No

Query block: What call does the record list for `COC(N)=O` ?
Result block: No

Query block: What call does the record list for O=P(OCC(Br)CBr)(OCC(Br)CBr)OCC(Br)CBr (centres undefined) ?
Result block: No

Query block: What call does the record list for O=C(O)C1C(C(=O)O)C2(Cl)C(Cl)=C(Cl)C1(Cl)C2(Cl)Cl (centres undefined) ?
Result block: No

Query block: What call does the record list for `CC(C)(C)OOC(C)(C)C` ?
Result block: No

Others:
Query block: What call does the record list for `O=c1ssc(Cl)c1Cl` ?
Result block: No

Query block: What call does the record list for CCCCOCC1CO1 (centres undefined) ?
Result block: No

Query block: What call does the record list for `CCN(CC)c1ccccc1` ?
Result block: No

* * *

experimental-protocol: APR_HepG2_MitoMass_24hr: Apredica 24-hour HepG2 Assay for Mitochondrial Mass (AID 2282912)
condition-details: high-content imaging, actives raise or lower the signal
Description: APR_HepG2_24hr is a cell-based, multiplexed-readout assay that uses HepG2, a human liver cell line, with measurements taken at 24 hours after chemical dosing in a 384-well plate.APR_HepG2_MitoMass_24hr is one of 10 assay component(s) measured or calculated from the APR_HepG2_24hr assay. […] This assay endpoint, APR_HepG2_MitoMass_24hr, was analyzed with bidirectional fitting relative to DMSO as the negative control and baseline of activity. […]
Activity calls are given as the source filed them. How the source made its calls: active means hit-call score of the fitted dose curve at least 0.9, where 1 is the maximum; inactive means score below 0.9.
Bench note: report the call from 1 for active, -1 for inactive

Take a look at these entries with their results.
Query block: What call does the record list for `Nc1ccc2ccccc2c1` ?
Result block: -1

Query block: What call does the record list for `CCCCN(CCCC)SN(C)C(=O)Oc1cccc2c1OC(C)(C)C2` ?
Result block: 1

Others:
Query block: What call does the record list for `CCNc1nc(Cl)nc(NC(C)(C)C)n1` ?
Result block: -1

* * *

Read-out: Vascular endothelial growth factor receptor 2 (Homo sapiens) (UniProt P35968)
experimental-protocol: BSK_4H_VEGFRII: BioMAP Diversity Plus: 4H Assay for Vascular endothelial growth factor receptor 2 (VEGFR2) Biomarker Activity (AID 2283031)
condition-details: primary human endothelial cells (HUVEC); actives raise or lower the signal
The source made the active and inactive calls. How the source made its calls: active means hit-call score of the fitted dose curve at least 0.9, where 1 is the maximum; inactive means score below 0.9.
Bench note: report the call from label 1 for active, label 0 for inactive

Take a look at these entries with their results.
Query block: What call does the record list for `CCCN(CCC)c1c([N+](=O)[O-])cc(C(C)C)cc1[N+](=O)[O-]` ?
Result block: label 1

Query block: What call does the record list for `CCCCN(CCCC)N=O` ?
Result block: label 0

Query block: What call does the record list for CC(O)C(F)(F)C(F)(F)F (configuration not stated) ?
Result block: label 0

Query block: What call does the record list for `Nc1ccc(Cl)cc1` ?
Result block: label 0

Others:
Query block: What call does the record list for `O=c1ssc(Cl)c1Cl` ?
Result block: label 0

Query block: What call does the record list for `Cc1ccc(N)cc1N` ?
Result block: label 0

Query block: What call does the record list for `c1ccc2c(c1)Nc1ccccc1S2` ?
Result block: label 0

Query block: What call does the record list for CCOP(=S)(Oc1ccc([N+](=O)[O-])cc1)c1ccccc1 (configuration not stated) ?
Result block: label 0

Query block: What call does the record list for `Cc1ccc2c(c1N)C(=O)c1ccccc1C2=O` ?
Result block: label 0

Query block: What call does the record list for `O=[N+]([O-])c1ccc(Cl)c(Cl)c1` ?
Result block: label 0

Query block: What call does the record list for `COP(N)(=S)OC` ?
Result block: label 0

Query block: What call does the record list for `CC(C)(C)c1ccc(O)cc1` ?
Result block: label 0

* * *

Read-out: Monokine induced gamma interferon (MIG), CXCL9 (gene 4283)
experimental-protocol: BSK_BE3C_MIG: BioMAP Diversity Plus: BE3C Assay for Monokine induced gamma interferon (MIG) Biomarker Activity (AID 2283035);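 also: MIG protein measured by ELISA in BE3C cultures after 24 h of dosing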
condition-details: primary human bronchial epithelial cells; actives raise or lower the signal
The source made the active and inactive calls. How the source made its calls: active means hit-call score of the fitted dose curve at least 0.9, where 1 is the maximum; inactive means score below 0.9.
Bench note: report the call from YES (active), NO (inactive)

Query block: What call does the record list for FC(F)(F)C(F)(C(F)(F)F)C(F)(F)C(F)(F)CC1CO1 (stereo not given) ?
Result block: NO

Query block: What call does the record list for `CCCCN(CCCC)N=O` ?
Result block: NO

Query block: What call does the record list for `NC(=O)C(F)(F)C(F)(F)F` ?
Result block: NO

Query block: What call does the record list for `C=CC(=O)OCC(F)(F)C(F)F` ?
Result block: NO

Query block: What call does the record list for `CCOc1ccc(C(C)(C)COCc2cccc(Oc3ccccc3)c2)cc1` ?
Result block: NO

Query block: What call does the record list for `CCOP(=S)(OCC)SCSc1ccc(Cl)cc1` ?
Result block: NO

Query block: What call does the record list for `OCC(F)(F)OC(F)(F)C(F)(F)OC(F)(F)CO` ?
Result block: NO

Query block: What call does the record list for O=P1(N(CCCl)CCCl)NCCCO1 (stereo not given) ?
Result block: NO

Query block: What call does the record list for `COP(N)(=S)OC` ?
Result block: NO

Query block: What call does the record list for `Nc1ccc(Cl)cc1` ?
Result block: NO

Query block: What call does the record list for `CCOP(=S)(OCC)SCn1nnc2ccccc2c1=O` ?
Result block: NO

* * *

Read-out: Plasminogen activator inhibitor-1 (PAI1), SERPINE1 (gene 5054)
experimental-protocol: BSK_BE3C_PAI1: BioMAP Diversity Plus: BE3C Assay for Plasminogen activator inhibitor-1 (PAI1) Biomarker Activity (AID 2283037)
condition-details: primary human bronchial epithelial cells; actives raise or lower the signal
Activity calls are given as the source filed them. Rule for the calls: active = hit-call score of the fitted dose curve at least 0.9, where 1 is the maximum; inactive = score below 0.9.
Bench note: report the call from true (1) = active, false (0) = inactive

Take a look at these entries with their results.
Query block: What call does the record list for `OCC(F)(F)OC(F)(F)C(F)(F)OC(F)(F)CO` ?
Result block: false (0)

Query block: What call does the record list for `CCNc1nc(Cl)nc(NC(C)(C)C)n1` ?
Result block: false (0)

Query block: What call does the record list for `O=S(=O)(F)C(F)(F)C(F)(F)C(F)(F)C(F)(F)C(F)(F)C(F)(F)C(F)(F)C(F)(F)F` ?
Result block: false (0)

Query block: What call does the record list for `O=C(O)C(F)(F)C(F)(F)C(=O)O` ?
Result block: false (0)

Query block: What call does the record list for `CCOS(=O)(=O)OCC` ?
Result block: false (0)

Others:
Query block: What call does the record list for COC(=O)C(F)(F)C(F)(F)OC(F)(C(F)(F)F)C(F)(F)OC(F)=C(F)F (stereo not drawn) ?
Result block: false (0)
